system: human lung cancer cell (A549); assay: In-vitro tumor cell proliferation inhibition (CCK-8), A549; settings: A549, 72 h, read-out: Tumor cell proliferation inhibitory activity (IC50, μM) A549
Entry class follows IC50: bin 0: < 2 µM; bin 1: ≥ 2 µM and < 5 µM; bin 2: ≥ 5 µM

Here are 4 compounds together with their reported answers.
compound	assigned-class
CC/C=C/C(=O)N1CCC[C@@H](n2nc(-c3ccc(Oc4ccccc4)nc3)c3c(N)ncnc32)C1 [Compound 20a]	bin 2
C=CC(=O)N1CC[C@@H](n2nc(-c3ccc(Oc4ccccc4)nc3F)c3c(N)ncnc32)C1 [Compound 24a]	bin 1
C=CC(=O)N1CCC[C@@H](n2nc(-c3ccc(Oc4ccccc4)cn3)c3c(N)ncnc32)C1	bin 1
C=CC(=O)N1CCC[C@@H](n2nc(-c3ccc(Oc4cccc(F)c4F)nc3F)c3c(N)ncnc32)C1 [Compound 17i]	bin 0

### Prompt Please let me know in which category the item C=CC(=O)N1CCC[C@@H](n2nc(-c3ccc(Oc4ccccc4)nc3)c3c(N)ncnc32)C1 [Compound 15a] belongs.
### Response bin 0

### Prompt Please let me know in which category the item C=CC(=O)N1CC[C@@H](n2nc(-c3ccc(Oc4ccccc4)nc3)c3c(N)ncnc32)C1 [Compound 23a] belongs.
### Response bin 1

### Prompt Please let me know in which category the item C=CC(=O)N1CCC[C@@H](n2nc(-c3ccc(Oc4cccc(F)c4)nc3)c3c(N)ncnc32)C1 [Compound 15c] belongs.
### Response bin 1

###

test system: Mino subcutaneous xenograft tumor; test: In-vivo pharmacodynamic study on Mino subcutaneous xenograft tumor models; settings: CB17 SCID mice, intragastric, twice a day
quantity-measured: TGI**(14 days) (%) calculated on the basis of tumor weight
Expressed in %, but write only the number.

molecule	measured-target	recorded-number
C=CC(=O)N1CC[C@@H](n2nc(-c3ccc(Oc4cccc(F)c4F)nc3F)c3c(N)ncnc32)C1 [Compound 24e]	Mino subcutaneous xenograft tumor	62.16

Tested system Mino subcutaneous xenograft tumor; TGI**(14 days) (%) calculated on the basis of tumor weight recorded for C=CC(=O)N1CCC[C@@H](n2nc(-c3ccc(Oc4ccccc4)nc3)c3c(N)ncnc32)C1 [Compound 15a] was 61.00

Tested system Mino subcutaneous xenograft tumor; TGI**(14 days) (%) calculated on the basis of tumor weight recorded for C=CC(=O)N1CC[C@@H](n2nc(-c3ccc(Oc4ccccc4)nc3F)c3c(N)ncnc32)C1 [Compound 24a] was 65.19

Tested system Mino subcutaneous xenograft tumor; TGI**(14 days) (%) calculated on the basis of tumor weight recorded for C=CC(=O)N1CCC[C@@H](n2nc(-c3ccc(Oc4ccccc4)nc3F)c3c(N)ncnc32)C1 [Compound 17a] was 74.05

###

molecular target: BTK Kinase (Homo sapiens (Human))
quantity-measured: pIC50
In plain terms, pIC50 is the concentration in mol/L turned into minus its base-10 logarithm.

Worked examples, 6 compounds total:
compound	pIC50
C=CC(=O)N1CCC[C@@H](n2nc(-c3ccc(Oc4ccccc4F)nc3)c3c(N)ncnc32)C1 [Compound 15d]	8.12
C=CC(=O)N1CC[C@@H](n2nc(-c3ccc(Oc4cccc(F)c4F)nc3F)c3c(N)ncnc32)C1 [Compound 24e]	8.74
C=CC(=O)N1CCC[C@@H](n2nc(-c3ccc(Oc4c(F)cccc4F)nc3)c3c(N)ncnc32)C1 [Compound 15g]	8.11
C=CC(=O)N1CCC[C@@H](n2nc(-c3ccc(Oc4ccc(C(F)(F)F)cc4)nc3)c3c(N)ncnc32)C1 [Compound 15k]	7.74
CC#CC(=O)N1CC[C@@H](n2nc(-c3ccc(Oc4ccccc4)nc3)c3c(N)ncnc32)C1 [Compound 25a]	7.60
C=CC(=O)N1CC[C@@H](n2nc(-c3ccc(Oc4c(F)cccc4F)nc3)c3c(N)ncnc32)C1 [Compound 23c]	8.01

Reported pIC50 for C=CC(=O)N1CCC[C@@H](n2nc(-c3ccc(Oc4cccc(F)c4F)nc3F)c3c(N)ncnc32)C1 [Compound 17i] was 8.92

Reported pIC50 for C=CC(=O)N1CCC[C@@H](n2nc(-c3cnc(Oc4ccccc4)cc3F)c3c(N)ncnc32)C1 [Compound 16a] was 8.05

Reported pIC50 for C=CC(=O)N1CCC[C@@H](n2nc(-c3ccc(Oc4ccc(OC)cc4)nc3)c3c(N)ncnc32)C1 [Compound 15j] was 7.49

Reported pIC50 for C=CC(=O)N1CCC[C@@H](n2nc(-c3ccc(Oc4ccccc4)cn3)c3c(N)ncnc32)C1 [Compound 19] was 8.28

###

test: Oral pharmacokinetic experiment in SD rats; format: in vivo; conditions: rat, plasma, oral (intragastric) 10 mg/kg, mean n = 3
Catalogue of Tmax values
Expressed in min, but write only the number.

compound	endpoint-unit	Tmax
C=CC(=O)N1CCC[C@@H](n2nc(-c3ccc(Oc4ccccc4)nc3)c3c(N)ncnc32)C1 [Compound 15a]	min	20
C=CC(=O)N1CC[C@@H](n2nc(-c3ccc(Oc4ccccc4)nc3F)c3c(N)ncnc32)C1 [Compound 24a]	min	45

Could you now consider this next compound?
Reported Tmax for C=CC(=O)N1CC[C@@H](n2nc(-c3ccc(Oc4cccc(F)c4F)nc3F)c3c(N)ncnc32)C1 [Compound 24e] was 15

###

target: FLT3 (Homo sapiens (Human), UniProt P36888)
Sequence (P36888 27-993, species assumed): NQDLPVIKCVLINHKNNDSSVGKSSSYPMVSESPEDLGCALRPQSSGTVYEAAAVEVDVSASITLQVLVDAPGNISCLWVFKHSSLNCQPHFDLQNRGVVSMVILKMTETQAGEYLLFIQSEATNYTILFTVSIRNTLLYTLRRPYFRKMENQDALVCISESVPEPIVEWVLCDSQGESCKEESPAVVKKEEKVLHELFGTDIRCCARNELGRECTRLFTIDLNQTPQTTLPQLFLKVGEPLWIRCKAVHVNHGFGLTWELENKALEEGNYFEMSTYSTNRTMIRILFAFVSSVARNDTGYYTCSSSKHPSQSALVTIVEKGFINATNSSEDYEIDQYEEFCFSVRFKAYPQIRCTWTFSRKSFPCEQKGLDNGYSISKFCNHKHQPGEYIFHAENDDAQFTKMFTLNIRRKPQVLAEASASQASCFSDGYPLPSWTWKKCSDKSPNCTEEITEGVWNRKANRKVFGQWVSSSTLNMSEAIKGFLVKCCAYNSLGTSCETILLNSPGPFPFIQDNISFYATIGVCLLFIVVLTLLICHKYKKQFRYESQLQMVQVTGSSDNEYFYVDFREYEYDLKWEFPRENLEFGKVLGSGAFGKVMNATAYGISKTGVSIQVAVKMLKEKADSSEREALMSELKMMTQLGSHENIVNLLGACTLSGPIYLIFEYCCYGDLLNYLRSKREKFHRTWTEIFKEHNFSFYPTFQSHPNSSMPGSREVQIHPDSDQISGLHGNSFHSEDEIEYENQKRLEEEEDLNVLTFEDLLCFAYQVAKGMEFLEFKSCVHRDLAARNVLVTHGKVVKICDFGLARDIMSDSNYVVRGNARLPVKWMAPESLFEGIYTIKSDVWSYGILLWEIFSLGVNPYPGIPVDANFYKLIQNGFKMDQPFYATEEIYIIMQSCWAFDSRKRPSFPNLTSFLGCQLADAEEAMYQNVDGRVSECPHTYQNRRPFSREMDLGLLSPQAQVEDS
quantity-measured: IC50

Worked examples, 2 molecules total:
molecule	IC50
C=CC(=O)N1CCC[C@@H](n2nc(-c3ccc(Oc4ccccc4)nc3)c3c(N)ncnc32)C1 [Compound 15a]	> 1000 nM
C=CC(=O)N1CC[C@@H](n2nc(-c3ccc(Oc4ccccc4)nc3F)c3c(N)ncnc32)C1 [Compound 24a]	> 1000 nM

Could you now consider this next molecule?
Tested system FLT3 (Homo sapiens (Human), UniProt P36888); IC50 recorded for C=CC(=O)N1CCC[C@@H](n2nc(-c3ccc(Oc4ccccc4)nc3F)c3c(N)ncnc32)C1 [Compound 17a] was > 1000 nM

###

As an illustration, consider measured pIC50 for molecules on BLK (Homo sapiens (Human), UniProt P51451).
Sequence (P51451 whole entry, species assumed): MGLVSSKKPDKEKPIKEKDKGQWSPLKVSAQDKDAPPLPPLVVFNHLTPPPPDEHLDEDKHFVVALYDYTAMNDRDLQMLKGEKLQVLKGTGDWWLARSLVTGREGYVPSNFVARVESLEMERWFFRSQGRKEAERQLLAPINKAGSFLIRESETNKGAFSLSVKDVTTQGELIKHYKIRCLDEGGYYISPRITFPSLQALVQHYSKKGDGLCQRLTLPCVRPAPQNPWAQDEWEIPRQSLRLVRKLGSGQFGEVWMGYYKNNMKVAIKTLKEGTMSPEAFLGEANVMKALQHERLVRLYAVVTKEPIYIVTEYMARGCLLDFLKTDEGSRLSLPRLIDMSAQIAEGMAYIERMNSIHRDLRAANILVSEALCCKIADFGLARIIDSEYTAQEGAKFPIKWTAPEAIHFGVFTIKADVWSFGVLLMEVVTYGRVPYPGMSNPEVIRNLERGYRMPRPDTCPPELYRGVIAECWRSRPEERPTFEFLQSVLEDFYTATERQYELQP
In plain terms, pIC50 is the concentration in mol/L turned into minus its base-10 logarithm.

molecule	pIC50
C=CC(=O)N1CCC[C@@H](n2nc(-c3ccc(Oc4ccccc4)nc3F)c3c(N)ncnc32)C1 [Compound 17a]	7.96
C=CC(=O)N1CCC[C@@H](n2nc(-c3ccc(Oc4ccccc4)nc3)c3c(N)ncnc32)C1 [Compound 15a]	7.52

Could you now consider this next molecule?
Tested system BLK (Homo sapiens (Human), UniProt P51451); pIC50 recorded for C=CC(=O)N1CC[C@@H](n2nc(-c3ccc(Oc4ccccc4)nc3F)c3c(N)ncnc32)C1 [Compound 24a] was 8.27

###

assay: Oral pharmacokinetic experiment in SD rats; format: in vivo; conditions: rat, plasma, oral (intragastric) 10 mg/kg, mean n = 3
quantity-measured: Cmax (ng/mL)
Expressed in ng/mL, but write only the number.

Reported Cmax for C=CC(=O)N1CCC[C@@H](n2nc(-c3ccc(Oc4ccccc4)cc3)c3c(N)ncnc32)C1 [Ibrutinib, reference compound] was 254

Reported Cmax for C=CC(=O)N1CCC[C@@H](n2nc(-c3ccc(Oc4ccccc4)nc3)c3c(N)ncnc32)C1 [Compound 15a] was 292

Reported Cmax for C=CC(=O)N1CC[C@@H](n2nc(-c3ccc(Oc4cccc(F)c4F)nc3F)c3c(N)ncnc32)C1 [Compound 24e] was 1440

Reported Cmax for C=CC(=O)N1CC[C@@H](n2nc(-c3ccc(Oc4ccccc4)nc3F)c3c(N)ncnc32)C1 [Compound 24a] was 548

###

assay: Oral pharmacokinetic experiment in SD rats; type: in vivo; conditions: rat, plasma, oral (intragastric) 10 mg/kg, mean n = 3
quantity-measured: half-life (h)
Expressed in h, but write only the number.

Reported half-life for C=CC(=O)N1CC[C@@H](n2nc(-c3ccc(Oc4ccccc4)nc3F)c3c(N)ncnc32)C1 [Compound 24a] was 1.7

Reported half-life for C=CC(=O)N1CC[C@@H](n2nc(-c3ccc(Oc4cccc(F)c4F)nc3F)c3c(N)ncnc32)C1 [Compound 24e] was 3.57

Reported half-life for C=CC(=O)N1CCC[C@@H](n2nc(-c3ccc(Oc4ccccc4)nc3)c3c(N)ncnc32)C1 [Compound 15a] was 6.17

###

biological target: CSK (Homo sapiens (Human))
Sequence (P41240 whole entry, species assumed): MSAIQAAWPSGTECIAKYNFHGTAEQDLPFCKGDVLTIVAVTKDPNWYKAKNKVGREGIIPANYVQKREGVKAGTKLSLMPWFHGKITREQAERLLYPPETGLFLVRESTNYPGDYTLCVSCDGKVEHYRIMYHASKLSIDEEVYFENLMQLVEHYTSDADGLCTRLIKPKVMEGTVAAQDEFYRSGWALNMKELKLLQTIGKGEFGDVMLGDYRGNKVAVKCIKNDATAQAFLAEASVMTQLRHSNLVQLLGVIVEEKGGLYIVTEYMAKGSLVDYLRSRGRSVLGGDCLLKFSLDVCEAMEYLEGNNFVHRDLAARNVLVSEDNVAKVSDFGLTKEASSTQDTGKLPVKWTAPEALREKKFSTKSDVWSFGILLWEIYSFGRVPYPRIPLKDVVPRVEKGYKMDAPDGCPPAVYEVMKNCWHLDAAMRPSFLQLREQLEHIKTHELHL
quantity-measured: IC50

Worked examples, 2 compounds total:
compound	measured-target	IC50
C=CC(=O)N1CC[C@@H](n2nc(-c3ccc(Oc4ccccc4)nc3F)c3c(N)ncnc32)C1 [Compound 24a]	CSK (Homo sapiens (Human))	> 1000 nM
C=CC(=O)N1CCC[C@@H](n2nc(-c3ccc(Oc4ccccc4)nc3F)c3c(N)ncnc32)C1 [Compound 17a]	CSK (Homo sapiens (Human))	> 1000 nM

Could you now consider this next compound?
Tested system CSK (Homo sapiens (Human)); IC50 recorded for C=CC(=O)N1CCC[C@@H](n2nc(-c3ccc(Oc4ccccc4)nc3)c3c(N)ncnc32)C1 [Compound 15a] was > 1000 nM

###

As an illustration, consider measured IC50 for compounds on BTK Kinase (Homo sapiens (Human), UniProt Q06187).
Sequence (Q06187 whole entry): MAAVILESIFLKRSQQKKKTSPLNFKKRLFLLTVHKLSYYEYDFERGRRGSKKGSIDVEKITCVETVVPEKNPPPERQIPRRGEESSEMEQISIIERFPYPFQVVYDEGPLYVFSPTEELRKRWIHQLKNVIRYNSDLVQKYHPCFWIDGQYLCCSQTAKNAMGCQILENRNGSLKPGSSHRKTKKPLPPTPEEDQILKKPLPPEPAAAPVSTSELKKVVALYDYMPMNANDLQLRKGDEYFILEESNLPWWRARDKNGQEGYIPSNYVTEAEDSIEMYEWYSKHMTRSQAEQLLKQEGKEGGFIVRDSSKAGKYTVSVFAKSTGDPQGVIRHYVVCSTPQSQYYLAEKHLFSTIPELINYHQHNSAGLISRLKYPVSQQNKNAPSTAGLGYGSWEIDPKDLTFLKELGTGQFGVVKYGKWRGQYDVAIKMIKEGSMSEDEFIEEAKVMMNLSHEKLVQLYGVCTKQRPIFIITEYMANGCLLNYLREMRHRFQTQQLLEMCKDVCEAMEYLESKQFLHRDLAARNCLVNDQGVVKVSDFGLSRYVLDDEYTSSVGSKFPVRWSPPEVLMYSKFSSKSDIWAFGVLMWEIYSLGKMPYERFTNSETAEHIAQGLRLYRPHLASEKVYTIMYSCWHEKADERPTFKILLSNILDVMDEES

Worked examples, 2 compounds total:
compound	IC50
C=CC(=O)N1CCC[C@@H](n2nc(-c3cnc(Oc4ccccc4)cc3C)c3c(N)ncnc32)C1 [Compound 16c]	6.6 nM
C=CC(=O)N1CCC[C@@H](n2nc(-c3ccc(Oc4ccc(Cl)cc4)nc3)c3c(N)ncnc32)C1 [Compound 15e]	10.5 nM

Tested system BTK Kinase (Homo sapiens (Human), UniProt Q06187); IC50 recorded for CC/C=C/C(=O)N1CCC[C@@H](n2nc(-c3ccc(Oc4ccccc4)nc3)c3c(N)ncnc32)C1 [Compound 20a] was 18.6 nM

Tested system BTK Kinase (Homo sapiens (Human), UniProt Q06187); IC50 recorded for C=CC(=O)N1CCC[C@@H](n2nc(-c3ccc(Oc4ccccc4)nc3C)c3c(N)ncnc32)C1 [Compound 16d] was 7.2 nM

Tested system BTK Kinase (Homo sapiens (Human), UniProt Q06187); IC50 recorded for C=CC(=O)N1CCC[C@@H](n2nc(-c3ccc(Oc4cccc(F)c4F)nc3)c3c(N)ncnc32)C1 [Compound 15h] was 3.2 nM

Tested system BTK Kinase (Homo sapiens (Human), UniProt Q06187); IC50 recorded for C=CC(=O)N1CC[C@@H](n2nc(-c3ccc(Oc4ccccc4F)nc3)c3c(N)ncnc32)C1 [Compound 23b] was 9.6 nM
